- assayedSystem: SMARCA2 (Homo sapiens)
- Sequence (P51531 whole entry): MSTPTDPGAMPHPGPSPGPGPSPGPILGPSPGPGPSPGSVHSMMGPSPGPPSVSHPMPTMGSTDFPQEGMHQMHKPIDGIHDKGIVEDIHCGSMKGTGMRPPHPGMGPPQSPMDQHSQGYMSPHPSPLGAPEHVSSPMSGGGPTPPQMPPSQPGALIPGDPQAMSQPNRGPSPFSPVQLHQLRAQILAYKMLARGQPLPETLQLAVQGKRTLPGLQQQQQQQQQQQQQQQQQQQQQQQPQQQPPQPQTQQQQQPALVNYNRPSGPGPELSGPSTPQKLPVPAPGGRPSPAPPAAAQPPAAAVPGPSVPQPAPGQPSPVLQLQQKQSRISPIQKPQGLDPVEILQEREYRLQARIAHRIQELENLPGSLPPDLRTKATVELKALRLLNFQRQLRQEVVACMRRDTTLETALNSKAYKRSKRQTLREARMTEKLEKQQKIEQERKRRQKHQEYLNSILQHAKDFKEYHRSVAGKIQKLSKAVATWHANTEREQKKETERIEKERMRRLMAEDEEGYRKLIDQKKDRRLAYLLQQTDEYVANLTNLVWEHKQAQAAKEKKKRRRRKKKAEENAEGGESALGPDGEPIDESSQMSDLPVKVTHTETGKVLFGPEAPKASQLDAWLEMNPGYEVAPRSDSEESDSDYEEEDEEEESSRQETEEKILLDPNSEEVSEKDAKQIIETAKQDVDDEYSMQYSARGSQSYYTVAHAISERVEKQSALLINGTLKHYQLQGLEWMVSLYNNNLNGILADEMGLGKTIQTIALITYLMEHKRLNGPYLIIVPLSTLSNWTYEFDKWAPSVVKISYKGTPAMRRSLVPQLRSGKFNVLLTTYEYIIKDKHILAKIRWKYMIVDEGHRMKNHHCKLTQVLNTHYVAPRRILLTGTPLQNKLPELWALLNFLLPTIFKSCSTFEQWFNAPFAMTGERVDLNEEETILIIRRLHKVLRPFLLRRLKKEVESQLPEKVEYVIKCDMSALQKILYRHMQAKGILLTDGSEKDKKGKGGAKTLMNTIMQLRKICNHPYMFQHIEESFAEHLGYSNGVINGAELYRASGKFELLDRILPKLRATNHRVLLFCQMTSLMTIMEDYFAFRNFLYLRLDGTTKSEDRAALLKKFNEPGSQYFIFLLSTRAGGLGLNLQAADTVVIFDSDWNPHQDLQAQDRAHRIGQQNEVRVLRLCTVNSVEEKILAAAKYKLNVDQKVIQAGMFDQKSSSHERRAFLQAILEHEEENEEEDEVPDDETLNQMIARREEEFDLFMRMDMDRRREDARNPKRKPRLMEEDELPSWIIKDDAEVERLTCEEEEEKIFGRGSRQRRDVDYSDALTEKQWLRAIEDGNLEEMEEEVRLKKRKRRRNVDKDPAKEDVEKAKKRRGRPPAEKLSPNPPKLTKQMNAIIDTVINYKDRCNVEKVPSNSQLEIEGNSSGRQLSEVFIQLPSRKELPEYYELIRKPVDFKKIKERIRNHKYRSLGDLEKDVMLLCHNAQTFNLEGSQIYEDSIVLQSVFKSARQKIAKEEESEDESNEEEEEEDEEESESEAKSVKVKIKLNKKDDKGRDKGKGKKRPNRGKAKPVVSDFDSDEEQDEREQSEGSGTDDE
- assayRemarks: SMARCA2 Western blot degradation in MV4-11 cells
- Type: cell-based
- Design: SMARCA2/SMARCA4 protein degradation selectivity in MV4-11 cells; endogenous in cells; host or cells: MV4-11
- experimentalParameters: MV4-11 cells, 24 h; read-out: SMARCA2 MSD MV411 degradation 24 h: Mean external-Abs DC50
Quick reference for DC50 among some molecules

Past entries and their recorded results:
1) C#Cc1ccc([C@H](C)NC(=O)[C@@H]2C[C@@H](O)CN2C(=O)[C@@H](NC(=O)N2CC3(CC(N4CCC(c5cnc(N6CCc7[nH]c8nnc(-c9ccccc9O)cc8c7[C@H]6CO)nc5)CC4)C3)C2)C(C)(C)C)cc1 [I-321]; 1 to 10 nM
2) C#Cc1ccc(CNC(=O)[C@@H]2C[C@@H](O)CN2C(=O)[C@@H](NC(=O)N2CC3(CC(N4CCC(c5cnc(N6CCc7[nH]c8nnc(-c9ccccc9O)cc8c7[C@H]6C)nc5)CC4)C3)C2)C(C)(C)C)c(C)c1 [I-270]; 1 to 10 nM
3) C#Cc1ccc(CNC(=O)[C@@H]2C[C@@H](O)CN2C(=O)[C@@H](NC(=O)N2CCN(CC3CCN([C@H]4CC[C@@H](N5CCN6c7cc(-c8ccccc8O)nnc7NC[C@H]6C5)CC4)CC3)CC2)C(C)(C)C)cc1 [I-216]; > 100 nM

For the molecule Cc1ncsc1-c1ccc(CNC(=O)[C@@H]2C[C@@H](O)CN2C(=O)[C@@H](NC(=O)[C@H]2CC3(C2)C[C@H](N2CCC(c4ccnc(N5CCN6c7cc(-c8ccccc8O)nnc7NC[C@@H]6C5)n4)CC2)C3)C(C)(C)C)cc1 (single isomer, unassigned) [I-3] , give its reported DC50. 1 to 10 nM

Please list DC50 recorded for the molecule Cc1cc(Cl)ccc1C#CCNC(=O)[C@@H]1C[C@@H](O)CN1C(=O)[C@@H](NC(=O)[C@H]1CCC2(CC1)C[C@H](N1CCC(c3cnc(N4CCN5c6cc(-c7ccccc7O)nnc6NC[C@H]5C4)nc3)CC1)C2)C(C)(C)C (single isomer, unassigned) [I-126] > 100 nM

Provide measured DC50 value, entry: C#Cc1ccc(CNC(=O)[C@@H]2C[C@@H](O)CN2C(=O)[C@@H](NC(=O)N2CC3(CC(N4CCC(c5cnc(N6CCc7[nH]c8nnc(-c9ccccc9O)cc8c7[C@H]6C)nc5)CC4)C3)C2)C(C)(C)C)c(OC)c1 [I-119] 1 to 10 nM

Input CC(C)(C)[C@H](NC(=O)[C@H]1CCC2(CC1)C[C@H](N1CCC(c3cnc(N4CCN5c6cc(-c7ccccc7O)nnc6NC[C@H]5C4)nc3)CC1)C2)C(=O)N1C[C@H](O)C[C@H]1C(=O)NCC#Cc1ccc(Cl)cc1 (single isomer, unassigned) [I-114] , output reported DC50. > 100 nM

Could you please provide reported DC50 for C#Cc1ccc(CNC(=O)[C@@H]2C[C@@H](O)CN2C(=O)[C@@H](NC(=O)[C@H]2CCC3(CC2)C[C@H](N2CCC(c4cnc(N5CCN6c7cc(-c8ccccc8O)nnc7NC[C@H]6C5)nc4)CC2)C3)C(C)(C)CCO)cc1 (single isomer, unassigned) [I-131] ? Thanks! < 1 nM

Hello, please tell me recorded DC50 for this one: C#Cc1ccc(CNC(=O)[C@@H]2C[C@@H](O)CN2C(=O)[C@@H](NC(=O)N2CCN(CC3CCN(c4cnc(N5CCN6c7cc(-c8ccccc8O)nnc7NC[C@H]6C5)nc4)CC3)CC2)C(C)(C)C)cc1 [I-163] < 1 nM
